Reference for the values: a melting point compilation (Tetko et al.; mined from patent text by program, amines drawn as free bases though some values may be those of a salt)

Give measured melting point for each item. Keep answers brief.

Prompt: What does the record list as melting point for O=c1[nH]c2ccccc2n1CCN1CCc2c([nH]c3ccccc23)C1 ?
Response: 214 to 216 °C

Prompt: Do the same for O=C1CSc2cccc(Cl)c2N1 please
Response: 160 to 161 °C

Prompt: Then COc1cc(-c2n[nH]c3c2Cc2ccccc2-3)cc(OC)c1OC ?
Response: 185 to 187 °C

Prompt: Similarly, CC1c2ccccc2-c2cc(Br)ccc2N1S(=O)(=O)c1ccc(O)cc1 (stereo not given) ?
Response: 201 to 203 °C

Prompt: Then Cc1cc(Oc2ccc(NC(=O)N(C)C)cc2)nc(Cl)n1 ?
Response: 176 to 178 °C

Prompt: Repeat with O=C(NCCO)c1ccc(/C=C/c2ccccc2OCc2ccccc2)cc1
Response: 149 to 151 °C

Prompt: // next record Cc1cc(C)nc(NC(=O)NS(=O)(=O)c2sccc2-c2ccon2)n1
Response: 172 to 173 °C

Prompt: Entry to check: NC(=O)CNc1ncccc1N
Response: 153 to 155 °C

Prompt: Now the same for CN(C)CCOc1cc(CCCOc2nn(Cc3ccccc3)cc2CC(=O)O)n(Cc2ccc(Cl)cc2Cl)n1
Response: 78.3 to 80.8 °C

Prompt: Now try COc1ccc2c(c1)CCC1C2CCC2(C)C(OC(C)=O)=CCC12 (stereo not given) .
Response: 97 to 100 °C

----------
quantityMeasured: melting point

Prompt: If you can, please state the reported melting point value of N=C(N)c1ccc(CC23CCCN2C(=O)N(c2cc(Cl)cc(Cl)c2)C3=O)cc1 (stereo not given) .
Response: 188 °C

Prompt: Field entry: Cc1nc(C#CCCc2nc3ccccc3o2)c[nH]1
Response: 152 to 154 °C

Prompt: Now give it for CN1C(=S)N(c2ccc(Cl)c(Cl)c2)C(=N)C1(C)C too.
Response: 133 °C

Prompt: Then this compound: Cc1ccccc1CNC(=O)c1ccc2n1Cc1ccccc1N(C(=O)c1ccc(-c3ccccc3C)c(C)c1)C2
Response: 128 to 130 °C

Prompt: Now consider COc1cc2c(N)nc(N3CCN(c4nc5cccccc-5n4)CC3)nc2c(OC)c1OC and answer again.
Response: 284 to 285 °C

Prompt: Do the same for CC(C)N[C@@H]1CCc2c(ccc(OCc3ccccc3)c2CO)[C@H]1O (relative stereo) please
Response: 138 to 139 °C

Prompt: Repeat with O=C(Nc1nc2ccc(Cl)cc2c2c1ncn2-c1ccccc1Cl)c1ccccc1
Response: 255 to 258 °C

Prompt: Next record, please: COc1ccc(-c2ccccc2NC(=N)N(C)C)cc1
Response: 130 to 131 °C

Prompt: One more compound: O=C(O)Cc1ccc2ccn(Cc3ccccc3)c2c1
Response: 109 to 111 °C

Prompt: For Cc1cn(-c2cccc(N)c2)cn1 then?
Response: 117 to 119 °C

Prompt: Same lookup for CCOC(=O)C1NC(C(=O)O)c2[nH]c3cccc(OCc4cccc(Cl)c4)c3c2C1COC (stereo not given) , please.
Response: 178 to 179 °C

Prompt: Then CC(C)N(Cc1c(-c2ccccc2)sc(N)c1C(=O)c1ccc(Cl)cc1)C(C)C ?
Response: 185 to 187 °C

Prompt: Cool, now CC(C)(C)c1c(Cl)nc(OCc2ccccc2)nc1OCc1ccccc1
Response: 96 °C

Prompt: Now this one: C#CCOc1cc(-c2nc3n(c2Cl)CCCC3)c(F)cc1Cl
Response: 142 to 145 °C

Prompt: CN(c1ccc(F)cc1)c1nc(=O)c2cccnc2s1 , same question.
Response: 184 to 185 °C

Prompt: For CCc1cc(Cl)c(NC(C)=O)c(Cl)n1 then?
Response: 142 °C

Prompt: Repeat with CCOC(=O)c1cnn(-c2ccccn2)c1S(N)(=O)=O
Response: 73 to 76 °C

Prompt: Another compound to check: COc1c(O)ccc(C=O)c1[N+](=O)[O-]
Response: 136 to 137 °C

Prompt: Entry O=c1[nH]c2ccccc2c2c(CCN3CCN(Cc4ccccc4)CC3)n(-c3ccccc3)nc12 please
Response: 211 to 212 °C

Prompt: Then what about the compound CCc1cnc(N2CCC(c3ccc4[nH]c(-c5ccc(S(C)(=O)=O)cc5F)nc4c3)CC2)nc1 ?
Response: 220 to 224 °C
